Source: patent US8846947B2

Molecular target: SIRT1 (Homo sapiens, UniProt Q96EB6)
Test: Mass spectrometry based SIRT1 deacetylase activation assay (acetylated p53-derived peptide substrate)
Type: biochemical
valueKind: EC1.5

These recorded examples may help you get a feel for the data.
>>> reading("O=C(Nc1nccs1)c1cccc2[nH]c(-c3cccnc3N3CCOCC3)nc12")
"B (EC1.5 1-25 uM)"
>>> reading("Cc1nc(NC(=O)c2cccc3[nH]c(-c4ccnn4-c4ccccc4)nc23)sc1C")
"A (EC1.5<1.0 uM)"
>>> reading("O=C(Nc1cccnc1)c1cccc2[nH]c(-c3ccc(-c4nnn[nH]4)cc3)nc12")
"A (EC1.5<1.0 uM)"
>>> reading("O=C(NCc1ccccn1)c1cccc2[nH]c(-c3cccc(C(F)(F)F)c3)nc12")
"B (EC1.5 1-25 uM)"
>>> reading("O=C(Nc1nccs1)c1cccc2[nH]c(-c3ccccc3CN3CCOCC3)nc12")
"B (EC1.5 1-25 uM)"
>>> reading("O=C(Nc1cccnc1)c1cccc2[nH]c(-c3ccc(Cl)cc3C(F)(F)F)nc12")
"A (EC1.5<1.0 uM)"

Field: EC1.5. Fill in for each record below.
1. Cc1cc(NC(=O)c2cccc3[nH]c(-c4cc(F)ccc4C(F)(F)F)nc23)n(C)n1
2. Cc1nc(NC(=O)c2cccc3[nH]c(-c4cc(F)ccc4C(F)(F)F)nc23)sc1C

Reply text:
1. A (EC1.5<1.0 uM)
2. A (EC1.5<1.0 uM)

---

Target: SIRT1 (Homo sapiens, UniProt Q96EB6)
Sequence (Q96EB6 1-747): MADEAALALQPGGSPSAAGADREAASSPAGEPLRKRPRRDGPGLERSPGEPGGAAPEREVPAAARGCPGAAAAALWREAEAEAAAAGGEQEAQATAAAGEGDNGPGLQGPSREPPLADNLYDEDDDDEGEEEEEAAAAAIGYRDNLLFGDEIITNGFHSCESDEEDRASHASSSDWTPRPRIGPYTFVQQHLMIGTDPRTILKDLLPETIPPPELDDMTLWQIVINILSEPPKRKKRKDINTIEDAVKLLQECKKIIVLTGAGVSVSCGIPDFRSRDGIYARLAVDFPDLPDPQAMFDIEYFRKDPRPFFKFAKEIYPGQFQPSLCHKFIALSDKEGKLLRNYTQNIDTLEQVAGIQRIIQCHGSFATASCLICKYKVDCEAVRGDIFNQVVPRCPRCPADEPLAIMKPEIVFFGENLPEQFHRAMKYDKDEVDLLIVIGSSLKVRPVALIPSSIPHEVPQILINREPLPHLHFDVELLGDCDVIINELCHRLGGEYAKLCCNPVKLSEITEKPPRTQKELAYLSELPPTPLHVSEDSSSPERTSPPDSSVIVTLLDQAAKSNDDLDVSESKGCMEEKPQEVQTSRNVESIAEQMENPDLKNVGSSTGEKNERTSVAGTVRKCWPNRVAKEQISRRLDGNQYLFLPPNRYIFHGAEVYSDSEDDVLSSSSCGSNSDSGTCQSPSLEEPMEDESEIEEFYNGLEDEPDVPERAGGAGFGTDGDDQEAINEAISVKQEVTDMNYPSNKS
Assay: Mass spectrometry based SIRT1 deacetylase activation assay (acetylated p53-derived peptide substrate)
Assay type: biochemical
Source text: A mass spectrometry based assay was used to identify modulators of SIRT1 activity. The mass spectrometry based assay utilizes a peptide having 20 amino acid residues as follows: Ac-EE-K(biotin)-GQSTSSHSK(Ac)NleSTEG-K(5TMR)-EE-NH2 (SEQ ID NO: 1) wherein K(Ac) is an acetylated lysine residue and Nle is a norleucine. The peptide is labeled with the fluorophore 5TMR (excitation 540 nm/emission 580 nm) at the C-terminus. The sequence of the peptide substrate is based on p53 with several modifications. […]
valueKind: EC1.5

Recorded results for 5 compounds are shown here.
>>> reading("O=C(Nc1nccs1)c1cccc2[nH]c(-c3cccc(F)c3)nc12")
"B (EC1.5 1-25 uM)"
>>> reading("O=C(Nc1nncs1)c1cccc2[nH]c(-c3cccc(C(F)(F)F)c3)nc12")
"C (EC1.5 >25 uM)"
>>> reading("O=C(Nc1cccc2[nH]c(-c3ccccc3C(F)(F)F)nc12)c1cccnc1")
"B (EC1.5 1-25 uM)"
>>> reading("O=C(Nc1cccc[n+]1[O-])c1cccc2[nH]c(-c3ccccc3C(F)(F)F)nc12")
"B (EC1.5 1-25 uM)"
>>> reading("O=C(Nc1ccc[n+]([O-])c1)c1cccc2[nH]c(-c3ccccc3C(F)(F)F)nc12")
"A (EC1.5<1.0 uM)"

Take each entry in turn and give its EC1.5.
1. O=C(Nc1nccs1)c1cccc2[nH]c(-c3ccc4c(c3)OC(F)(F)O4)nc12
2. O=C(Nc1ccncc1)c1cccc2[nH]c(-c3ccccc3C(F)(F)F)nc12
3. Cc1cc(C)nc(NC(=O)c2cccc3[nH]c(-c4ccc(F)cc4C(F)(F)F)nc23)c1

Reply text:
1: C (EC1.5 >25 uM); 2: A (EC1.5<1.0 uM); 3: A (EC1.5<1.0 uM)

---

Molecular target: SIRT1 (Homo sapiens, UniProt Q96EB6)
Sequence (Q96EB6 1-747): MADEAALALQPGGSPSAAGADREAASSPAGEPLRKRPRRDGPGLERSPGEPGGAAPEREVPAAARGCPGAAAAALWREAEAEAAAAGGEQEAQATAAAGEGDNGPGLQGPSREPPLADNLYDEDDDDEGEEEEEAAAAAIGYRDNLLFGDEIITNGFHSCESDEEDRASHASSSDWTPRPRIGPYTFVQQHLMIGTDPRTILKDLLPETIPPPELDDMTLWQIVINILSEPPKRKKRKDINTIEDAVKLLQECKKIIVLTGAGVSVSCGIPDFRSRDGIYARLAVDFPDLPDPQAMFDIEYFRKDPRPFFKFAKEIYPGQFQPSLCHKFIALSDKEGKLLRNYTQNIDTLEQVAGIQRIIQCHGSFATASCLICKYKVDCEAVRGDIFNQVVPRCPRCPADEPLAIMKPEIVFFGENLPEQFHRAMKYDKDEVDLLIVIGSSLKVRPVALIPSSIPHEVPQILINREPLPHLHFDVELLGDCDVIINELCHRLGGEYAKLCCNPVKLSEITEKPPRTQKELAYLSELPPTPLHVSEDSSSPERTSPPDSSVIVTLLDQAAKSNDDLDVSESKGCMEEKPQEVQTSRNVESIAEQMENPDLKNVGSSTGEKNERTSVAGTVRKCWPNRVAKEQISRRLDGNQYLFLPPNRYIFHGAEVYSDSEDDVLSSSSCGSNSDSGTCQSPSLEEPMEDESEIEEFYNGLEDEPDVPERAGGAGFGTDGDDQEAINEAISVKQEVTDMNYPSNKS
Experiment: Mass spectrometry based SIRT1 deacetylase activation assay (acetylated p53-derived peptide substrate)
Format: biochemical
Conditions: 0.5 μM peptide substrate, 120 μM βNAD+, 10 nM SIRT1, 25 minutes at 25° C.
valueKind: EC1.5

A selection of reference data follows.
>>> reading("O=C(Nc1cccnn1)c1cc(N2CCOCC2)cc2[nH]c(-c3cc(F)ccc3C(F)F)nc12")
"A (EC1.5<1.0 uM)"
>>> reading("C[C@@H]1CN(c2ccc(C(F)(F)F)c(-c3nc4c(C(=O)Nc5ccccn5)cccc4[nH]3)c2)C[C@H](C)O1")
"C (EC1.5 >25 uM)"
>>> reading("O=C(Nc1cccc(OC[C@@H](O)CO)c1)c1cncc2[nH]c(-c3ccc(Cl)cc3C(F)(F)F)nc12")
"A (EC1.5<1.0 uM)"
>>> reading("O=C(Nc1cccc(OC[C@@H](O)CO)c1)c1cccc2[nH]c(-c3cc(F)ccc3C(F)F)nc12")
"A (EC1.5<1.0 uM)"
>>> reading("O=C(Nc1cccc(OCC(O)CO)c1)c1cccc2[nH]c(-c3ccc(F)cc3C(F)(F)F)nc12 (stereo not shown) [Compound 679]")
"A (EC1.5<1.0 uM)"

// input: 8 compounds below; output: EC1.5 for each
1. O=C(Nc1ccccn1)c1cccc2[nH]c(-c3ccc(CN4CCCC4)cc3C(F)(F)F)nc12
2. O=C(Nc1ccccn1)c1cc(N2CCOCC2)cc2[nH]c(-c3ccccc3C(F)F)nc12
3. O=C(Nc1ccccn1)c1cccc2nc(-c3ccc(N4CCCC4)cc3C(F)F)[nH]c12
4. O=C(Nc1ccccn1)c1cccc2[nH]c(-c3ccccc3OCCN3CCC(F)(F)C3)nc12
5. FC(F)(F)c1ccccc1-c1nc2c(NCc3cccnc3)cccc2[nH]1
6. O=C(Nc1cccc(OC[C@H](O)CO)c1)c1cccc2[nH]c(-c3ccncc3)nc12
7. Cc1cnc(NC(=O)c2cc(N3CCCC3)cc3[nH]c(-c4ccccc4C(F)F)nc23)s1
8. O=C(Nc1cccnn1)c1cncc2[nH]c(-c3ccc(N4CCCC4)cc3C(F)F)nc12

Reply text:
1: A (EC1.5<1.0 uM); 2: A (EC1.5<1.0 uM); 3: B (EC1.5 1-25 uM); 4: C (EC1.5 >25 uM); 5: C (EC1.5 >25 uM); 6: A (EC1.5<1.0 uM); 7: A (EC1.5<1.0 uM); 8: A (EC1.5<1.0 uM)
